- TESTED ON: Translocator protein (Mus musculus)
- TEST SUMMARY: Inhibition of TSPO in mouse HT22 cells assessed as reduction in amyloid beta (1 to 42) (unknown origin) induced mitochondrial permeability transition pore formation by measuring increase in green to red fluorescence ratio at 5 uM pretreated for 10 mins followed by amyloid beta (1 to 42) stimulation and measured at 1 hr interval for 3 hrs by JC-1 dye based fluorescence assay relative to control
- Assay type: cell-based
- Design: scale not given: the % may be the effect or the level left
Returns rule met if the recorded Activity is greater than or equal to 10%, and rule not met otherwise.

Example cases with answers are listed next.
| MOLECULE | ASSIGNED LABEL |
| --- | --- |
| CCCC(=O)n1nc(-c2ccco2)nc1S(=O)(=O)Cc1ccccc1 | rule not met |
| CCc1nnc(SCC(=O)Nc2ccc(OC)c(OC)c2)c2cc3sccc3n12 | rule met |
| CNC(=O)CN(c1ccc(Br)cc1)S(=O)(=O)c1ccc(C)cc1 | rule met |
| CCN(Cc1ccccc1)C(=O)CSc1nnc(C)n2c1cc1sccc12 | rule met |
| CN1C(=O)CN=C(c2ccc(Cl)cc2)c2cc(Cl)ccc21 | rule met |

Now turn to the next molecule.
Is the recorded value of Activity equal to or greater than 10% for this molecule? Cc1nnc(SCC(=O)Nc2ccccc2)c2cc3sccc3n12
rule met

The reported measurements were obtained from ChEMBL document CHEMBL4130502.
